src = patent US20180099931A1

TESTED_SYSTEM: F508delCFTR (Homo sapiens, UniProt P13569, DEL508-508)
Construct: expressed in transfected cells; host or cells: CFBE41o- human lung-derived epithelial cells (CFBE4lo-F508delCFTR-HRP), doxycycline-inducible
Sequence (P13569 with tags, fused parts or gaps DEL508-508): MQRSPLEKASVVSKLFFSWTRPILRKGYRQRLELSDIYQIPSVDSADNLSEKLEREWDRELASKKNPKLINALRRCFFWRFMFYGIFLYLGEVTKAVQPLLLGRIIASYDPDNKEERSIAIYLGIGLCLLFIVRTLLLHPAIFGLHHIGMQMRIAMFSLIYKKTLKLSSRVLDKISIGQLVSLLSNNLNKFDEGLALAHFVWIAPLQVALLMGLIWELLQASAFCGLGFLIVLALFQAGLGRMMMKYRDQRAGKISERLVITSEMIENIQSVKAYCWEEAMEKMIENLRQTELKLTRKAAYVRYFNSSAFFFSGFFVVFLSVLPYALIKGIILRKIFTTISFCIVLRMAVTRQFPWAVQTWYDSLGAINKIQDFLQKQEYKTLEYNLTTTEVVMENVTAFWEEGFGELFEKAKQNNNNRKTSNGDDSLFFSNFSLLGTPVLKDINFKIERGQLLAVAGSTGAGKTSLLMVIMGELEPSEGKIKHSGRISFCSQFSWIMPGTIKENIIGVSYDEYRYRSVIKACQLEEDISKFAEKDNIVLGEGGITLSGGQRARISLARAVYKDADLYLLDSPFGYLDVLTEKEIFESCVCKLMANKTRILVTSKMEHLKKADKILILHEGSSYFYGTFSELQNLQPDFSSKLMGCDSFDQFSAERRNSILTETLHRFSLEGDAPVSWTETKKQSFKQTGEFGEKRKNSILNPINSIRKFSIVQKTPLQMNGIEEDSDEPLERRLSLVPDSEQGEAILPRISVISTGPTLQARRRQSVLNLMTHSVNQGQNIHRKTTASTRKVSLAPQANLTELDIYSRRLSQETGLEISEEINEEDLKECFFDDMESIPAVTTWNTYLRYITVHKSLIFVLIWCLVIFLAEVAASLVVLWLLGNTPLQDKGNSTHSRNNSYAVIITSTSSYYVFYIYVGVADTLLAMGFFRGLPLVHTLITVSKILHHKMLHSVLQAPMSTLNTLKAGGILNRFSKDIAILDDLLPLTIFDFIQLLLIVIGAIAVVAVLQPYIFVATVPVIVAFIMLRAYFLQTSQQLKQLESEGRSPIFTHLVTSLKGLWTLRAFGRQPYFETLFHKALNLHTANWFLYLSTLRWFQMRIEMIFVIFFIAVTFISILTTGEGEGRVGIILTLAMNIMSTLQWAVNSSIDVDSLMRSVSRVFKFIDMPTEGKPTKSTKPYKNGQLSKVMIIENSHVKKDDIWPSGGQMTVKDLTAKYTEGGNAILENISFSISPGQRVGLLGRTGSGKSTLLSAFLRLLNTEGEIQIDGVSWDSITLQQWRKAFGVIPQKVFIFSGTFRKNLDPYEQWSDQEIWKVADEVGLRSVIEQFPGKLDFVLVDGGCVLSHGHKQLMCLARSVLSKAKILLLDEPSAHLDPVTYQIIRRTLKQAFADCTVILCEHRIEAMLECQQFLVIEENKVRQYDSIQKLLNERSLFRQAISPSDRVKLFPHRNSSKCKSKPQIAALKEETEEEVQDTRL
TEST_METHOD_NOTES: Cell Surface Expression-Horse Radish Peroxidase (CSE-HRP) Assay
Format: cell-based
APPLIED_CONDITIONS: with co-corrector (2 μM of 3-[(2R,4R)-4-({[1-(2,2-difluoro-1,3-benzodioxol-5-yl)cyclopropyl]carbonyl}amino)-7-methoxy-3,4-dihydro-2H-chromen-2-yl]benzoic acid); read-out: EC50 (with co-corrector)
pEC50: −log10 of the molar value.
Give pEC50 for every item shown.

Consider the following illustrative entries.
{"MOLECULE": "COc1cc(C(F)(F)F)ccc1CN[C@@H]1[C@@H](C(C)(C)C)[C@H](C(=O)O)N(C(=O)OC2CCC2)[C@@H]1c1ccccc1 (racemic)", "pEC50": "5.00 to 6.00"}
{"MOLECULE": "COc1cccc([C@H]2[C@@H](NCc3cc(C(F)(F)F)ccc3OC)[C@H](C(C)(C)C)[C@@H](C(=O)O)N2C(=O)C2CCCOC2)n1 (mixture of isomers)", "pEC50": "5.00 to 6.00"}
{"MOLECULE": "COc1ncc(C2CCC2)cc1CN(C)[C@H]1[C@H](C(C)(C)C)[C@@H](C(=O)O)N(C(=O)[C@@H]2CCCCO2)[C@H]1c1ccccc1C(C)C", "pEC50": "> 6.00"}
{"MOLECULE": "COc1ccc(C(F)(F)F)cc1CN[C@H]1[C@H](C(C)(C)C)[C@@H](C(=O)O)N(C(=O)C2CCCCC2)[C@H]1c1ccccc1", "pEC50": "> 6.00"}

Each molecule below has a recorded value; state its pEC50.
1. COc1ccc(C(C)(C)C)cc1CN[C@H]1[C@H](C(C)(C)C)[C@@H](C(=O)O)N(C(=O)[C@@H]2[C@@H](C(F)(F)F)[C@@H]3CC[C@H]2O3)[C@H]1c1cccnc1N(C)C (relative stereo)
2. COc1ccc(C2(C#N)CCC2)cc1CN[C@H]1[C@H](C(C)(C)C)[C@@H](C(=O)O)N(C(=O)C2CCCCC2)[C@H]1c1ccccc1
3. COc1ccc(C(C)(C)C)cc1CN[C@H]1[C@H](C(C)(C)C)[C@@H](C(=O)O)N(C(=O)c2cnn(C(C)(C)C)c2C(C)C)[C@H]1c1ccccc1

> 6.00
5.00 to 6.00
5.00 to 6.00

Dear reader, for each entry below, please note its pEC50.
1. COc1cc(C(F)(F)F)ccc1CN[C@H]1[C@H](C(C)(C)C)[C@@H](C(=O)O)N(C(=O)[C@H]2CCCCO2)[C@H]1c1cccnc1N(C)C
2. COc1ccc(OC)c(CN[C@@H]2[C@@H](C(C)(C)C)[C@H](C(=O)O)N(C(=O)C3CCCCC3)[C@@H]2c2ccccc2)c1 (racemic)
3. COc1ccc(C(C)(C)C)cc1CN[C@H]1[C@H](C(C)(C)C)[C@@H](C(=O)O)N(C(=O)c2cnn(-c3ccccc3)c2C)[C@H]1c1ccccc1
4. CC(C)(C)NC(=O)c1cncc(N[C@H]2[C@H](C(C)(C)C)[C@@H](C(=O)O)N(C(=O)C3CCCCC3)[C@H]2c2ccccc2)c1
5. COc1cc(Cl)ccc1CN[C@@H]1[C@@H](C)[C@H](C(=O)O)N(C(=O)N(C(C)C)C(C)C)[C@@H]1c1ccccc1 (racemic)

1. 5.00 to 6.00
2. 5.00 to 6.00
3. > 6.00
4. < 5.00
5. 5.00 to 6.00

###

TESTED_SYSTEM: F508delCFTR (Homo sapiens, UniProt P13569, DEL508-508)
Construct: expressed in transfected cells; host or cells: CFBE41o- human lung-derived epithelial cells (CFBE4lo-F508delCFTR-HRP), doxycycline-inducible
TEST_METHOD_NOTES: Cell Surface Expression-Horse Radish Peroxidase (CSE-HRP) Assay
Assay type: cell-based
APPLIED_CONDITIONS: test compound without co-corrector; read-out: EC50 (without co-corrector)
PROPERTY_MEASURED: EC50

{"COMPOUND": "CO[C@@H]1CCC[C@@H](C(=O)N2[C@H](c3ccccc3)[C@H](Nc3cc(C(F)(F)F)cc(C)n3)[C@@H](C(C)(C)C)[C@@H]2C(=O)O)C1 (racemic)", "PROPERTY_MEASURED": "EC50", "RESULT": "1000 to 10000 nM"}
{"COMPOUND": "COc1ncc(-c2ccc(F)cc2F)cc1CN[C@H]1[C@H](C(C)(C)C)[C@@H](C(=O)O)N(C(=O)C2CCCCC2)[C@H]1c1ccccc1", "PROPERTY_MEASURED": "EC50", "RESULT": "1000 to 10000 nM"}
{"COMPOUND": "COc1ccc(C(C)(C)C)cc1CN[C@@H]1[C@@H](C(C)(C)C)[C@H](C(=O)NS(C)(=O)=O)N(C(=O)C2CCCCC2)[C@@H]1c1ccccc1", "PROPERTY_MEASURED": "EC50", "RESULT": "1000 to 10000 nM"}

Look at each compound and report its EC50.
1. COc1ccc(C(C)(C)C)cc1CN[C@H]1[C@H](C23CC(C2)C3)[C@@H](C(=O)O)N(C(=O)OC(C)C)[C@H]1c1cccnc1N(C)C
2. Cc1cc(C(F)(F)F)cc(N[C@@H]2[C@@H](C(C)(C)C)[C@H](C(=O)O)N(C(=O)OC(C)C)[C@@H]2c2cccnc2N(C)C)n1 (racemic)

1: 1000 to 10000 nM; 2: 1000 to 10000 nM

For every listed record, write down its EC50.
1. COc1ncc(C(F)(F)F)cc1CN[C@H]1[C@H](C(C)(C)C)[C@@H](C(=O)O)N(C(=O)C2CCCCC2)[C@H]1c1cccnc1N(C)C
2. COc1ccc(C(C)(C)C)cc1CN[C@H]1[C@H](C(C)(C)C)[C@@H](C(=O)O)N(C(=O)C2Cc3ccccc3O2)[C@H]1c1cccnc1OC (single isomer, unassigned) [Example I-165]
3. CC(C)(C)[C@H]1[C@H](NCc2cc(Cl)c3c(c2)OCO3)[C@H](c2ccccc2)N(C(=O)C2CCCCC2)[C@@H]1C(=O)O
4. COc1ccc(C(F)(F)F)cc1CN[C@H]1[C@H](C(C)(C)OC)[C@@H](C(=O)O)N(C(=O)C2CCCCC2)[C@H]1c1cccnc1OC
5. COc1ncc(C2CCCC2)cc1CN[C@H]1[C@H](C(C)(C)C)[C@@H](C(=O)O)N(C(=O)C2CCCCC2)[C@H]1c1ccccc1

["1000 to 10000 nM", "< 1000 nM", "> 10000 nM", "1000 to 10000 nM", "< 1000 nM"]

###

Task for the reader: assign each of the following molecules its reported Emax.
TESTED_SYSTEM: F508delCFTR (Homo sapiens, UniProt P13569, DEL508-508)
Construct: expressed in transfected cells; host or cells: CFBE41o- human lung-derived epithelial cells (CFBE4lo-F508delCFTR-HRP), doxycycline-inducible
TEST_METHOD_NOTES: Cell Surface Expression-Horse Radish Peroxidase (CSE-HRP) Assay;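 on Maximum % activity (without co-corrector): percent of the 2 µM on-plate positive control corrector response above DMSO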
Type: cell-based
APPLIED_CONDITIONS: test compound without co-corrector; maximum at any tested concentration, normalized to on-plate positive control; read-out: Maximum % activity (without co-corrector)

{"MOLECULE": "COc1ccc(C(C)(C)C)cc1CN[C@H]1[C@H](C(C)(C)C)[C@@H](C(=O)O)N(C(=O)c2cn(C)cc(C)c2=O)[C@H]1c1ccccc1 [III-176]", "Emax": "< 100%"}
{"MOLECULE": "CC(C)(C)[C@H]1[C@H](Nc2cc(C#N)cc(Cl)n2)[C@H](c2ccccc2)N(C(=O)C2CCCCC2)[C@@H]1C(=O)O [III-146]", "Emax": "< 100%"}
{"MOLECULE": "COc1cc(C(F)(F)F)ccc1CN[C@@H]1[C@@H](C(C)(C)C)[C@H](C(=O)O)N(C(=O)C2COCCO2)[C@@H]1c1ccccc1 (mixture of isomers) [III-113]", "Emax": "< 100%"}
{"MOLECULE": "CN(C)c1ncc(C(F)(F)F)cc1CN[C@@H]1[C@@H](C(C)(C)C)[C@H](C(=O)O)N(C(=O)C2CCCCC2)[C@@H]1c1ccccc1 (racemic) [III-36]", "Emax": "< 100%"}
{"MOLECULE": "COc1ccc(C(C)(C)C)cc1CN[C@H]1[C@H](C(C)(C)C)[C@@H](C(=O)O)N(C(=O)C2CC3C(CC2C)C3(C)C)[C@H]1c1ccccc1 (stereo partly drawn) [II-376]", "Emax": "> 200%"}

# evaluate next
Recall and state the measured Emax for COc1ncc(C2CCC2)cc1CN[C@@H]1[C@@H](C(C)(C)C)[C@H](C(=O)O)N(C(=O)[C@@H]2CCCO2)[C@@H]1c1ccccc1Cl [III-236] .
< 100%
